// reported TGI for each item listed
- Test system: TK-10 renal
- EXPERIMENT_NOTES: NCI tumour cell line growth inhibition, 48 h
ENDPOINT_NAME: TGI

MOLECULE	TARGET_DESC	DATA_VALUE
CCCCCCCCCCCCC(O)C(=O)O (centres undefined)	TK-10 renal	> 100 µM
CC(C)(C)c1cc(C(=O)O)c2c(c1)C(=O)OC2(c1ccccc1)c1ccccc1C(=O)O (centres undefined)	TK-10 renal	> 100 µM
c1cc(CN2CCNCCNCCNCC2)cc(CN2CCNCCNCCNCC2)c1	TK-10 renal	> 100 µM
Cc1cccc(CNc2ncnc3[nH]ncc23)c1	TK-10 renal	> 100 µM
O=C(c1cc(Cc2n[nH]c(=O)c3ccccc23)ccc1F)N1CCN(C(=O)C2CC2)CC1	TK-10 renal	> 100 µM
CCc1ccccc1NC(=O)CC1NC(=O)CS1 (centres undefined)	TK-10 renal	> 100 µM
CCCCN(C)C(=O)C1=C(C)NC(C)=C(C(=O)N(C)CCCC)C1	TK-10 renal	> 100 µM
CCOC(=O)/C=C/C1(CCOC(C)=O)CCCCC1	TK-10 renal	> 10 µM
COC(=O)c1ccc(C=C(C#N)C#N)cc1	TK-10 renal	79.1 µM
COc1cc2c(cc1NC(=O)C(Cl)Cl)-c1ccc(NC(=O)C(Cl)Cl)cc1C2	TK-10 renal	2.53 µM
CCC(C)N1CN(c2ccccc2)C2(CCN(CCCSc3ccc(F)cc3)CC2)C1=O (centres undefined)	TK-10 renal	11.2 µM
CC(C)OC(=O)C1Cc2c([nH]c3ccccc23)C(c2ccccc2)N1 (centres undefined)	TK-10 renal	> 100 µM
CCOC(=O)C(Cc1ccc(N(CCCl)CCCl)cc1)NC(=O)C(Cc1ccccc1)NC(C)=O (centres undefined)	TK-10 renal	> 0.325 µM
C/C(=N\NC(=O)C(N)=O)c1c(O)cc(C)oc1=O	TK-10 renal	> 100 µM
COc1ccc(S(=O)(=O)N2CCNCC2)cc1OC	TK-10 renal	> 100 µM
COc1ccc(NC/C=C/C(=C/COC(C)=O)OC(C)=O)cc1	TK-10 renal	3.74 µM
NC(CCCCNCc1ccccc1O)C(=O)O (centres undefined)	TK-10 renal	> 100 µM
CN(C)c1nc(N)c(C#N)c(C#N)c1C#N	TK-10 renal	> 10 µM
O=C(Nc1nc2ncn(CCO)c2c(=O)[nH]1)c1ccccc1	TK-10 renal	> 100 µM
CC(=O)CC(=O)CCC(=O)Nc1cccc(C(F)(F)F)c1	TK-10 renal	> 100 µM
COC(=O)[C@@]1(NC(=O)C(CC(=O)OC(C)(C)C)NC(=O)OC(C)(C)C)C[C@H]1C (some centres undefined)	TK-10 renal	> 100 µM
O=c1[nH]c(=O)n(C2C(CO)OC(CO)C2O)cc1F (centres undefined)	TK-10 renal	> 100 µM
COc1cc(-c2ncn(/C=C\c3nnco3)n2)cc(C(F)(F)F)c1	TK-10 renal	23 µM
O=C(c1c(O)cc(O)cc1O)C1Cc2ccccc21 (centres undefined)	TK-10 renal	> 100 µM

* * *

// reported TGI for each item listed
- Test system: KM20L2 colon
- EXPERIMENT_NOTES: NCI tumour cell line growth inhibition, 48 h

COMPOUND	TGI
O=C(O)C12CC3CC(CC(F)(C3)C1)C2	> 100 µM
CN(C)C(F)=PC(F)(F)F (configuration not stated)	> 100 µM
CC(N)CC(=O)O (configuration not stated)	> 5000 µM
N#C/C(=C1\OC(=N)C(c2ccc(Cl)cc2Cl)C1=O)c1ccc(Cl)cc1Cl (configuration not stated)	> 100 µM
c1ccc2cc3c(cc2c1)OP1(Oc2cccc4cccnc24)(O3)Oc2cc3ccccc3cc2O1	20.3 µM
Cc1nnc(N/N=C(/C(=O)C(C#N)c2ccc(Cl)cc2)C(C#N)c2ccc(Cl)cc2)n1N (configuration not stated)	41.2 µM
Cn1nc(-c2ccccc2)c(C(=O)/C=C/c2ccc(Cl)cc2)c(N2CCOCC2)c1=O	13.8 µM
O=c1ccn(/C=C/C(O)C(O)CO)c(=O)[nH]1 (configuration not stated)	> 100 µM
COC(=O)CCC(NC(=S)N/N=C(\C)c1cnccn1)C(=O)OC (configuration not stated)	> 100 µM
COC(=O)c1ccc(C=C(C#N)C#N)cc1	> 100 µM
c1ccc(CN2COc3c(ccc4c5c(ccc34)CN(Cc3ccccc3)CO5)C2)cc1	> 100 µM
Oc1cccnc1/C=N/OCc1ccccc1	> 100 µM

Values from PubChem BioAssay (NCI)
